Hey, just so you know, these numbers are from PubChem BioAssay (NCI).

- Tested on: IGROV1 ovarian
- assay.name: NCI-60 one-dose screen, 48 h
- run.conditions: 10 µM unless noted
The panel holds about 83,000 compounds, 20% with a hit somewhere; the sample as a whole holds those more often. The source made the active and inactive calls. Rule for the calls: active = growth percent below 10; inactive = the rest.
Returns: one label drawn from t = active, f = inactive

Use these answered entries as a reference point.
CC(C)(C)OC(=O)N1C/C(=C\c2ccccc2)C(=O)/C(=C/c2ccccc2)C1	f
Oc1ccccc1/C=N/N=C\c1ccccc1Cl	f
CC(C)OC(=O)[C@H](C)N[P@@](=O)(OC[C@@]1(C)O[C@@H](n2cc(F)c(N)nc2=O)C[C@@H]1O[P@](=O)(N[C@@H](C)C(=O)OC(C)C)Oc1ccccc1)Oc1ccccc1	f
COC(=O)c1cc(Nc2ccc(O)c3c2C(=O)c2c([N+](=O)[O-])ccc(O)c2C3=O)cc(C(=O)OC)c1	f
C/C(=C\c1ccc2ccccc2c1)[N+](=O)[O-]	t

Could you check what this test reported for CCOC(=O)CSSCC(=O)OCC ? f

Cool, now Cn1c2c(cc(S(=O)(=O)c3ccccc3)c1=O)CCc1c-2cnn1-c1ccc(Cl)cc1 f
